System: S. aureus RN4220
EXPERIMENT SUMMARY: growth inhibition call (relative growth <= 0.2)
CONDITION SUMMARY: 50 µM
Screen size: about 39,000 compounds; about 500 (1.3%) were called active. Shown is part of a subset that was picked to be rich in actives.
Choose one outcome from this list and give only that: active, inactive

Task item: // outcome(item) with item = "COC(=O)c1c2oc(c1C(=O)OC)C(=O)N(C)Cc1cn(nn1)C[C@@H](C)NC(=O)N[C@H](CO)CC2"
Reply: inactive

Task item: // query: "C[C@@H]1CN([C@@H](C)CO)C(=O)c2cc(NS(=O)(=O)c3cn(C)cn3)ccc2O[C@@H](C)CCCCO[C@@H]1CN(C)S(=O)(=O)c1cccs1"
Reply: inactive

Task item: // query: "CC[C@@H]1OC(=O)C[C@@H](O)[C@H](C)[C@@H](O[C@@H]2O[C@H](C)[C@@H](O)[C@H](N(C)C)[C@H]2O)[C@@H](CCN2C[C@H](C)C[C@H](C)C2)C[C@@H](C)C(=O)/C=C/C(C)=C\[C@@H]1CO[C@@H]1O[C@H](C)[C@@H](O)[C@@H](OC)[C@H]1OC"
Reply: active

Task item: // query: "Cc1noc(C)c1S(=O)(=O)N(C)C[C@@H]1OCCCC[C@H](C)Oc2ccc(NC(=O)Nc3cccc4ccccc34)cc2C(=O)N([C@H](C)CO)C[C@H]1C"
Reply: inactive

Task item: // query: "CC[C@H]1OC(=O)C[C@@H](O)[C@H](C)[C@@H](O[C@@H]2O[C@H](C)[C@@H](O)[C@H](N(C)C)[C@H]2O)[C@@H](CCN2C[C@H](C)C[C@H](C)C2)C[C@@H](C)C(=O)/C=C/C(C)=C/[C@@H]1CO[C@@H]1O[C@H](C)[C@@H](O)[C@@H](OC)[C@H]1OC"
Reply: active

Task item: // query: "CC(C)NC(=O)N(C)C[C@@H]1Oc2ccc(NS(=O)(=O)c3cccs3)cc2CC(=O)N([C@@H](C)CO)C[C@@H]1C"
Reply: inactive

---

Test system: S. aureus RN4220
EXPERIMENT SUMMARY: growth inhibition call (relative growth <= 0.2)
CONDITION SUMMARY: 50 µM
The whole screen tested about 39,000 compounds, of which about 500 (1.3%) were called active. For the sample, actives were picked, then their nearest neighbours and some compounds at random.
Choose one outcome from this list and give only that: yes (active), no (inactive)

Previously resolved entries follow.
- MOLECULE: "C[C@@H]1CN([C@H](C)CO)C(=O)c2cc(NS(=O)(=O)c3ccccc3)ccc2O[C@@H](C)CCCCO[C@H]1CN(C)C(=O)NC1CCCCC1"
  ASSIGNED LABEL: "no"
- MOLECULE: "CC1(Cn2ccnn2)C(C(=O)O)N2C(=O)CC2S1(=O)=O (stereo not drawn)"
  ASSIGNED LABEL: "yes"
- MOLECULE: "CNC[C@@H]1Oc2cc(C#CCN(C)C)ccc2S(=O)(=O)N([C@@H](C)CO)C[C@@H]1C"
  ASSIGNED LABEL: "no"
- MOLECULE: "C[C@@H]1CN([C@H](C)CO)C(=O)c2cccc(NS(C)(=O)=O)c2O[C@H]1CN(C)C(=O)Nc1ccccc1"
  ASSIGNED LABEL: "no"
- MOLECULE: "CC(C)(C)[S@@+]([O-])N1Cc2cc(C(=O)O)nc(-c3ccc(Br)cc3)c2[C@H]1CCO[Si](C)(C)C(C)(C)C"
  ASSIGNED LABEL: "yes"

Task item: // outcome(item) with item = "COc1cccc(S(=O)(=O)Nc2ccc3c(c2)[C@@H]2C[C@@H](CC(=O)NC4CCCCC4)O[C@@H](CO)[C@@H]2O3)c1"
Reply: no

Task item: // query: "COc1ccc(S(=O)(=O)Nc2ccc3c(c2)C(=O)N([C@@H](C)CO)C[C@H](C)[C@@H](CN(C)S(C)(=O)=O)OCCCC[C@@H](C)O3)cc1"
Reply: no
